# System Tested: cathepsin B (Homo sapiens, UniProt P07858)
# Construct: purchased R&D Systems 953-CY-010
# Assay Summary: Cathepsin B inhibitor kinetic characterization, fluorogenic assay with Z-Phe-Arg-AMC
# Type: biochemical
# Test Context: cathepsin B, pH 7.2, without preincubation
Measure: IC50 (µM)

I. Cc1cccc(C)c1C(=O)OCC(=O)C(CCCCN)NC(=O)C(CCC(=O)O)NC(=O)OCc1ccccc1 (centres unmarked)
II. Cc1cccc(C)c1C(=O)OCC(=O)C(CCCCN)NC(=O)C(CCCNC(=N)N)NC(=O)OCc1ccccc1 (centres unmarked)
Query: // select label with min value of measured IC50 from [ I , II ] State your choice using its label.
Reply: II

Value source: patent US20240181068A1
